target: DNA dC->dU-editing enzyme APOBEC-3G (Homo sapiens) (UniProt Q9HC16); assay: qHTS for inhibitors of Vif-A3G interactions: Cherry picks counterscreen; conditions: HeLa A3G-eYFP + Vif, eYFP fluorescence, 24 h; further: potency means the concentration at half of the fitted maximal effect
Sequence (Q9HC16 whole entry, looked up): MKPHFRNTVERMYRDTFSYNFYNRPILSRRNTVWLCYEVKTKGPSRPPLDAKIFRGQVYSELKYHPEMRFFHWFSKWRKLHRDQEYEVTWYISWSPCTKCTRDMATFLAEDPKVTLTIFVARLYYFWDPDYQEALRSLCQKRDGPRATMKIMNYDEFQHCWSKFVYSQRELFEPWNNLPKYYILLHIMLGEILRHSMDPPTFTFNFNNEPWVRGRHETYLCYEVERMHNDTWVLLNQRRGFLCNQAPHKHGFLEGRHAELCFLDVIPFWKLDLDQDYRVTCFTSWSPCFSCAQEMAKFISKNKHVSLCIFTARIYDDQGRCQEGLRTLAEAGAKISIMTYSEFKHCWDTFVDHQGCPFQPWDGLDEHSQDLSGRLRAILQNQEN
About 1,100 (52%) of roughly 2,100 compounds were called active. Another 27% or so got no clear call; they are omitted. So high a share suggests a set chosen from earlier hits. This is one part of the list.
quantity: Potency

Solved cases below.
[[record]]
compound = "CCOC(=O)c1cc2n(c1/N=C/N(C)C)-c1ccccc1C2=O"
result = "16.4 µM (active)"

[[record]]
compound = "CC[n+]1c(C=C2C=C(C)OC(C)=C2)sc2ccccc21"
result = "4.11 µM (active)"

[[record]]
compound = "CC(=O)Nc1ccc(S(=O)(=O)N2CCSc3ccccc32)cc1"
result = "4.98 µM (active)"

[[record]]
compound = "CCCN1C(=O)/C(=C\\C=C2\\N(CC)c3ccccc3C2(C)C)SC1=S"
result = "2.06 µM (active)"

[[record]]
compound = "COC(=O)Nc1ccc(S(=O)(=O)N2CCCc3ccccc32)cc1"
result = "3.53 µM (active)"

[[record]]
compound = "CCOC(=O)c1ccc(NC(=O)CSc2nc(-c3cccs3)cc(C(F)(F)F)c2C#N)cc1"
result = "23.1 µM (active)"

[[record]]
compound = "O=Cc1s/c(=N\\S(=O)(=O)c2ccccc2)n(CCCCl)c1Cl"
result = "8.2 µM (active)"

[[record]]
compound = "CCCC(=O)Nc1nc2ccc(NC(=O)c3ccccc3F)cc2s1"
result = "15.8 µM (active)"


Problem: Which Potency value belongs to N#Cc1c(C(F)(F)F)cc(-c2cccs2)nc1SCC(=O)Nc1ccc(Cl)cc1 ?
Solution: 10.3 µM (active)

Problem: What do you have for CCCN1C(=O)/C(=C/C=C2\N(CC)c3ccccc3C2(C)C)SC1=S ?
Solution: 1.58 µM (active)

Problem: What do you have for Nc1c(C(=O)N/N=C/c2ccc(F)cc2)oc2nc(-c3ccccc3)cc(-c3ccco3)c12 ?
Solution: 6.27 µM (active)

Problem: What do you have for CCOc1ccc(N(C)c2ccc(/C=C3/SC(=S)NC3=O)cc2)cc1 ?
Solution: 15.8 µM (active)

Problem: What do you have for CCOC(=O)c1[nH]c(C)c(C(=O)Nc2ccccc2F)c1C ?
Solution: 3.53 µM (active)

Problem: What do you have for CN(C)c1ccc(C=C2SC(=S)NC2=O)cc1 ?
Solution: 9.94 µM (active)

---

target: DNA dC->dU-editing enzyme APOBEC-3G (Homo sapiens); assay: qHTS for inhibitors of Vif-A3G interactions: Cherry picks counterscreen; details: HeLa A3G-eYFP + Vif, eYFP fluorescence, 24 h;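 further: hits raise yellow fluorescence by blocking Vif-driven A3G-eYFP degradation; nearly all actives have a fitted effect of over 70% in size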; further: potency means the concentration at half of the fitted maximal effect
In all, about 2,100 compounds went through this assay and about 1,100 (52%) were called active. Roughly 27% stayed inconclusive and do not appear here. The set was probably picked from earlier hits. The list shows a part of the results.
Recorded measurements of Potency, one per entry

[[record]]
molecule = "O=C(Cn1cnc2c(cnn2-c2ccc(F)cc2)c1=O)NCc1ccco1"
test_system = "DNA dC->dU-editing enzyme APOBEC-3G (Homo sapiens)"
quantity = "Potency"
result = "17.7 µM (active)"

[[record]]
molecule = "CN(C)c1ccc(/C=C(\\C#N)c2nc3ccccc3c(=O)[nH]2)cc1"
test_system = "DNA dC->dU-editing enzyme APOBEC-3G (Homo sapiens)"
quantity = "Potency"
result = "0.411 µM (active)"

[[record]]
molecule = "Nc1[nH]c2cc([N+](=O)[O-])ccc2c1-c1ccccn1"
test_system = "DNA dC->dU-editing enzyme APOBEC-3G (Homo sapiens)"
quantity = "Potency"
result = "4.61 µM (active)"

[[record]]
molecule = "Cc1ccc(Cn2nnc3c(=O)n(CC(=O)NCc4ccccc4)cnc32)cc1"
test_system = "DNA dC->dU-editing enzyme APOBEC-3G (Homo sapiens)"
quantity = "Potency"
result = "8.86 µM (active)"

[[record]]
molecule = "CCCCCCc1cc2cc(-c3nnc(-c4ccccc4OC)o3)c(=O)oc2cc1O"
test_system = "DNA dC->dU-editing enzyme APOBEC-3G (Homo sapiens)"
quantity = "Potency"
result = "7.04 µM (active)"


Problem: Which Potency value belongs to COC(=O)CCS(=O)(=O)c1nc(-c2ccccc2)cc(C(F)(F)F)n1 ?
Solution: 12.5 µM (active)

Problem: What do you have for CCOc1ccc(C2CC(c3c(O)c4ccccc4oc3=O)=NN2c2ccccc2)cc1OC (stereo not given) ?
Solution: 5.17 µM (active)

Problem: What do you have for CC(=O)c1cc2c(cc1NS(=O)(=O)c1ccc(C)cc1)OCCO2 ?
Solution: 12.5 µM (active)

Problem: What do you have for N#C/C(=C/c1ccc(O)c(O)c1)c1nc2ccccc2[nH]1 ?
Solution: 3.14 µM (active)

Problem: What do you have for CC(C)(C)n1ncc2c(=O)n(CC(=O)NCc3ccc(F)cc3)cnc21 ?
Solution: 7.9 µM (active)

---

target: DNA dC->dU-editing enzyme APOBEC-3G (Homo sapiens) (UniProt Q9HC16); experiment: qHTS for inhibitors of Vif-A3G interactions: Cherry picks counterscreen; conditions: HeLa A3G-eYFP + Vif, eYFP fluorescence, 24 h;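 further: hits raise yellow fluorescence by blocking Vif-driven A3G-eYFP degradation; nearly all actives have a fitted effect of over 70% in size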; further: potency means the concentration at half of the fitted maximal effect
The whole screen tested about 2,100 compounds, of which about 1,100 (52%) were called active. Inconclusive results (about 27%) are left out. The set was probably picked from earlier hits. This is one part of the list.
quantity: Potency

Solved cases below.
[[record]]
molecule = "O=C(NCc1cccc(F)c1)c1cccc2c1C(=O)c1ccc(N3CCCC3)cc1S2(=O)=O"
test_system = "DNA dC->dU-editing enzyme APOBEC-3G (Homo sapiens) (UniProt Q9HC16)"
result = "17.7 µM (active)"

[[record]]
molecule = "Nc1nonc1-c1nc2ccccc2n1Cc1ccc(F)cc1"
test_system = "DNA dC->dU-editing enzyme APOBEC-3G (Homo sapiens) (UniProt Q9HC16)"
result = "12.5 µM (active)"

[[record]]
molecule = "CCOc1ccc(NC(=O)N2CC=C(c3c[nH]c4ccccc34)CC2)cc1"
test_system = "DNA dC->dU-editing enzyme APOBEC-3G (Homo sapiens) (UniProt Q9HC16)"
result = "18.4 µM (active)"


Note: attention shifts to another entry.
Problem: Which Potency value belongs to CCC(=O)Nc1nonc1-c1nc2ccccc2n1Cc1ccccc1 ?
Solution: 14 µM (active)

---

target: DNA dC->dU-editing enzyme APOBEC-3G (Homo sapiens); test: qHTS for inhibitors of Vif-A3G interactions: Cherry picks counterscreen; settings: HeLa A3G-eYFP + Vif, eYFP fluorescence, 24 h;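 further: hits raise yellow fluorescence by blocking Vif-driven A3G-eYFP degradation; nearly all actives have a fitted effect of over 70% in size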; further: potency means the concentration at half of the fitted maximal effect
Hit rate of the full screen: of about 2,100 compounds, about 1,100 (52%) were called active. Another 27% or so got no clear call; they are omitted. The set was probably picked from earlier hits. Some of the results follow.
quantity: Potency

Solved cases below.
[[record]]
smiles_structure = "Cc1sc(NC(=O)c2sc3nc4c(C)cccc4cc3c2N)c(C#N)c1C"
result = "17.7 µM (active)"

[[record]]
smiles_structure = "Cc1cccc2cc3c(N)c(C(=O)Nc4ccc(N5CCOCC5)cc4)sc3nc12"
result = "14 µM (active)"

[[record]]
smiles_structure = "CCN(CC)C(=O)CSC(Nc1cccc(F)c1)=C(C#N)C#N"
result = "13 µM (active)"

[[record]]
smiles_structure = "COC(=O)CCC(=O)NC(=S)Nc1sc(C)c(C)c1C(N)=O"
result = "0.886 µM (active)"

[[record]]
smiles_structure = "CN(C)c1ccc(/C=C/C(=O)c2c(O)c3ccccc3oc2=O)cc1"
result = "1.3 µM (active)"


Problem: Test system DNA dC->dU-editing enzyme APOBEC-3G (Homo sapiens); read-out Potency; what value for CC1=Nc2ccc(C)cc2/C1=C/c1c(N)n2oc(C)cc2nc1=O ?
Solution: 16.4 µM (active)

---

molecular target: DNA dC->dU-editing enzyme APOBEC-3G (Homo sapiens); assay: qHTS for inhibitors of Vif-A3G interactions: Cherry picks counterscreen; conditions: HeLa A3G-eYFP + Vif (tagged APOBEC3G with the HIV-1 protein that degrades it), eYFP fluorescence, 24 h;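 further: hits raise yellow fluorescence by blocking Vif-driven A3G-eYFP degradation; nearly all actives have a fitted effect of over 70% in size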;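 on max response: max response given as percent of control signal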
Screen size: about 2,100 compounds; about 1,100 (52%) were called active. Another 27% or so got no clear call; they are omitted. The set was probably picked from earlier hits. This is one part of the list.
Recorded measurements of max response, one per entry
Value expressed in %; do not type the unit.

[[record]]
compound = "O=C(Nc1ccc(Cl)cc1)Nc1ccon1"
readout_number = -27.2


Problem: Test system DNA dC->dU-editing enzyme APOBEC-3G (Homo sapiens); read-out max response; what value for CCOC(=O)c1c(-c2ccc(C)cc2)csc1NC(=O)/C(C#N)=C/c1ccc(O)c(OC)c1 ?
Solution: 57.5

Problem: What do you have for CCC(C)Sc1ccc(-c2nc3cc(C)ccn3c2NC2CCCCC2)cc1 (stereo not drawn) ?
Solution: 26.9

Problem: What do you have for Cc1csc(NC(=O)CCC(=O)N(CC(=O)NC2CCCC2)Cc2ccccc2)n1 ?
Solution: -14.8

Problem: What do you have for CN(C)c1ccc(/C=N/N(CCO)C2=NS(=O)(=O)c3ccccc32)cc1 ?
Solution: -24.9

Problem: What do you have for Cc1ccc(CSc2nc(-c3ccc(C(C)(C)C)cc3)nc3cc(=O)[nH]n23)cc1 ?
Solution: 28.6
